Each entry below carries its recorded TGI.
tested on: DU-145 prostate; test: NCI tumour cell line growth inhibition, 48 h

The examples below pair each entry with its known result.
C=CC1CC12C(=O)C1OC2(C)C2C(=O)c3ccccc3C(=O)C12 (configuration not stated) | > 100 µM
NC1=CN(CCCO)C2=N/C(=C\c3ccco3)C(=O)N12 | > 100 µM
c1ccc(COc2ccc(C[P+](c3ccccc3)(c3ccccc3)c3ccccc3)cc2)cc1 | 12.9 µM
Cc1ccc(S(=O)(=O)N(C)C)cc1[N+](=O)[O-] | > 100 µM
CCCC[C@@H]1NC(=O)[C@H](CCCCN)NC(=O)[C@H](CCCNC(=N)N)NC(=O)[C@H](CC(C)C)NC(=O)[C@@H](NC(=O)[C@H](Cc2cccc(Cl)c2)NC(=O)[C@@H]2CCCN2C(=O)[C@@H](NC(C)=O)C(C)C)CCSSC[C@@H](C(=O)N[C@@H](CCCCN)C(=O)N2CCC[C@H]2C(=O)N2CCC[C@H]2C(=O)N[C@@H](CCC(=O)O)C(N)=O)NC(=O)[C@H](Cc2ccccc2)NC(=O)[C@H](CO)NC(=O)[C@H](C)NC(=O)[C@@H]2CCCN2C1=O | > 50 µM
COC(=O)C1Cc2c(C)cccc2C1=O (configuration not stated) | > 100 µM

Please give the measured TGI for this compound: C[N+]1(C)C2Cc3ccccc3C1Cc1ccccc12
> 100 µM

TGI for C/C(=N\Nc1nc2cc(C)ccc2s1)c1ccccn1 ?
5.65 µM

# TGI lookup, item COc1ccc2c(c1)O/C(=C\c1cccc(OCC(=O)Nc3nc4ccccc4s3)c1)C2=O
21.9 µM

Name the recorded TGI for COc1cc(-c2c3c(cn2S(=O)(=O)c2ccccc2)-c2nc(N)sc2CC3)cc(OC)c1OC .
41.9 µM

Would you mind telling me what TGI value was observed for COc1ccc(-c2cc3cccc(OC)c3c(=O)o2)cc1OC ?
> 100 µM

Any idea what TGI was measured for CCOn1cc(C[C@@]2(O)C(=O)OC3[C@@H](O)CO[C@@]32O)c2ccccc21 (some centres not stated) ?
> 100 µM

====

system: UACC-62 melanoma; assay: NCI tumour cell line growth inhibition, 48 h; in the data active = GI50 below about 0.43 µM; inactive = the rest
Where a SMILES comes first, the peptide text is derived from it. [ ]: non-standard residue; d: D form. The star is where a group is joined. ξ: configuration not given here. X16 = COC1=CC(=O)N(C(=O)C(O*)C(C)C)C1Cc1ccccc1; ξNMe2Val = CC(C)C(C(=O)*)N(C)C; NMeV = CN[CH](C(=O)O)C(C)C
I would appreciate it if you answered using one of these outcomes: active, inactive

Take a look at these entries with their results.
COc1ccc(C(CC(=O)c2ccccc2)C(C(=O)c2ccccc2)C(c2ccc(OC)cc2)C2C(=O)NC(=O)NC2=O)cc1 (stereo not given) | inactive
C=C1C(=O)O[C@H]2[C@H]1CC/C(COC(=O)OCCCCCOC(=O)OC/C1=C/CC[C@@]3(C)O[C@H]3[C@H]3OC(=O)C(=C)[C@@H]3CC1)=C\CC[C@@]1(C)O[C@@H]21 | inactive
COc1ccc(C2C3=C(NC(=O)C2C#N)c2ccc4ccccc4c2OCC3)cc1 (stereo not given) | inactive
COC1=CC(=O)N(C(=O)C(OC(=O)C2CCCN2C(=O)C2CCCN2C(=O)C(C(C)C)N(C)C(=O)C(NC(=O)C(C(C)C)N(C)C)C(C)C)C(C)C)C1Cc1ccccc1 (stereo not given) (ξNMe2Val-V[NMeV]PP-X16; configuration not given here) | active

--- query ---
Hi, do you know how C[C@@H]1O[C@@H](O[C@H]2C[C@@H](O)[C@]3(CO)C4C(CC[C@]3(O)C2)[C@@]2(O)CC[C@H](C3=CC(=O)OC3)[C@@]2(C)C[C@H]4O)[C@H](O)[C@H](O)[C@H]1O (stereo not given in full) came out in this test?
active
